Experiment: Lipophilicity, log D of the compound
Assay type: physicochemical
Conditions: octanol/water
Field: class. Source value: logD. Ranges: low (below 2), moderate (2 to below 3), high (3 or more)

[
  {
    "Smiles str": "O=c1[nH]c2c(n3ccnc13)Cc1c(-c3cccc(Cl)c3)cccc1-2",
    "Category label": "moderate"
  },
  {
    "Smiles str": "O=c1[nH]c2c(n3ccnc13)Cc1c(-c3ccccc3)cccc1-2",
    "Category label": "high"
  },
  {
    "Smiles str": "C=CCn1c2c(n3ccnc3c1=O)Cc1c(-c3ccccc3)cccc1-2",
    "Category label": "moderate"
  },
  {
    "Smiles str": "O=c1c2nccn2c2c(n1Cc1ccccc1)-c1cccc(-c3ccccc3)c1C2",
    "Category label": "high"
  },
  {
    "Smiles str": "O=c1[nH]c2c(n3ccnc13)Cc1c-2cccc1-c1cccc2ncccc12",
    "Category label": "low"
  },
  {
    "Smiles str": "Cn1c2c(n3ccnc3c1=O)Cc1c(-c3ccccc3)cccc1-2",
    "Category label": "moderate"
  },
  {
    "Smiles str": "COc1cccc(-c2cccc3c2Cc2c-3[nH]c(=O)c3nccn23)c1",
    "Category label": "low"
  },
  {
    "Smiles str": "O=c1[nH]c2c(n3ccnc13)Cc1c(-c3cccnc3)cccc1-2",
    "Category label": "low"
  },
  {
    "Smiles str": "O=c1[nH]c2c(n3ccnc13)Cc1c(Br)cccc1-2",
    "Category label": "low"
  }
]

====

Test: Inhibition of Mycobacterium tuberculosis glutamine synthetase 1 assessed as reduction in ADP formation incubated 1 hr in presence of glutamate, ammonium chloride and ATP
Quantity name: IC50 (nM)

[
  {
    "Smiles str": "O=c1c2nccn2c2c(n1C1CC1)-c1cccc(-c3ccccn3)c1C2",
    "Result qualifier": "=",
    "Result value": 456
  },
  {
    "Smiles str": "O=c1[nH]c2c(n3ccnc13)Cc1c(-c3cccc(Cl)c3)cccc1-2",
    "Result qualifier": "=",
    "Result value": 610
  },
  {
    "Smiles str": "O=c1[nH]c2c(n3ccnc13)Cc1c(Br)cccc1-2",
    "Result qualifier": ">",
    "Result value": 30
  },
  {
    "Smiles str": "Cn1c2c(n3ccnc3c1=O)Cc1c(-c3ccccc3)cccc1-2",
    "Result qualifier": "=",
    "Result value": 170
  },
  {
    "Smiles str": "O=c1c2nccn2c2c(n1Cc1ccccc1)-c1cccc(-c3ccccc3)c1C2",
    "Result qualifier": "=",
    "Result value": 663
  },
  {
    "Smiles str": "CC(C)Cn1c2c(n3ccnc3c1=O)Cc1c(-c3cccnc3)cccc1-2",
    "Result qualifier": "=",
    "Result value": 66
  },
  {
    "Smiles str": "COc1cccc(-c2cccc3c2Cc2c-3[nH]c(=O)c3nccn23)c1",
    "Result qualifier": "=",
    "Result value": 51
  }
]
